Provenance of the data: patent US4789736A

# experimentalDetails: Animal biodistribution of Tc-99m complexes of ligands, no separation of stereoisomers (Example 22)
# Assay type: in vivo, rats
# testContext: 2 min pi; i.v. rats; mean of 3 animals
# Description: The ratio of diastereoisomers in the Tc-99m complexes used in this experiment is not known. The results at 2 minutes and 1 hour p.i. are the mean of 3 animals. The results at 2 hours p.i. are the mean of 2 animals.
experimentalReadout: % id/organ, Heart (% id/organ)

// solved cases for % id/organ, Heart follow
1) CC(=NO)C(C)NC(C)CC(C)NC(C)C(C)=NO (centres unmarked) :: 0.5
2) CC(C)C(=NO)C(C)NCCCNC(C)C(=NO)C(C)C (centres unmarked) :: 0.6

(1) CC(=NO)C(C)NCCCNC(C)C(C)=NO (racemic)
(2) CCC(NCCCNC(CC)C(C)=NO)C(C)=NO (centres unmarked)
Exam item: // compare measured % id/organ, Heart, left 1 , right 2 , return larger To answer, give the label that identifies your chosen option.
Marked response: 1
(1: 0.5 % id/organ, 2: 0.2 % id/organ)
